Origin of values: patent US9745335B2

- Tested on: Candida lusitaniae DSM 70102
- PROCEDURE DETAILS: antifungal activity in vitro, serial dilution in RPMI 1640
- Assay type: cell-based
READOUT LABEL: Antifungal activity MIC (mg/L)

COMPOUND | READOUT LABEL | TEST RESULT
C[C@@H]1[C@H](O)[C@@H](C)/C=C/C=C/C=C/C=C/C=C/C=C/C=C/[C@H](O[C@@H]2O[C@H](C)[C@@H](O)[C@H](NC(=S)NCCN(C)C)[C@@H]2O)C[C@@H]2O[C@](O)(C[C@@H](O)C[C@@H](O)[C@H](O)CC[C@@H](O)C[C@@H](O)CC(=O)O[C@H]1C)C[C@H](O)[C@H]2C(=O)O | Antifungal activity MIC | 1
C[C@@H]1[C@H](O)[C@@H](C)/C=C/C=C/C=C/C=C/C=C/C=C/C=C/[C@H](O[C@@H]2O[C@H](C)[C@@H](O)[C@H](NC(=O)[C@H](N)Cc3cccnc3)[C@@H]2O)C[C@@H]2O[C@](O)(C[C@@H](O)C[C@@H](O)[C@H](O)CC[C@@H](O)C[C@@H](O)CC(=O)O[C@H]1C)C[C@H](O)[C@H]2C(=O)O | Antifungal activity MIC | 2
CCN(CC)CCNC(=S)N[C@@H]1[C@H](O)[C@H](O[C@H]2/C=C/C=C/C=C/C=C/C=C/C=C/C=C/[C@H](C)[C@@H](O)[C@@H](C)[C@H](C)OC(=O)C[C@H](O)C[C@H](O)CC[C@@H](O)[C@H](O)C[C@H](O)C[C@]3(O)C[C@H](O)[C@@H](C(=O)O)[C@H](C2)O3)O[C@H](C)[C@H]1O | Antifungal activity MIC | 2
C[C@@H]1[C@H](O)[C@@H](C)/C=C/C=C/C=C/C=C/C=C/C=C/C=C/[C@H](O[C@@H]2O[C@H](C)[C@@H](O)[C@H](NC(=O)[C@@H](N)CSC(C)(C)C)[C@@H]2O)C[C@@H]2O[C@](O)(C[C@@H](O)C[C@@H](O)[C@H](O)CC[C@@H](O)C[C@@H](O)CC(=O)O[C@H]1C)C[C@H](O)[C@H]2C(=O)O [Compound A37, N-L-(S-tert-butyl)cystylamphotericin B] | Antifungal activity MIC | 1
Cc1cc(C)c(N2C(=O)CC(N[C@@H]3[C@H](O)[C@H](O[C@H]4/C=C/C=C/C=C/C=C/C=C/C=C/C=C/[C@H](C)[C@@H](O)[C@@H](C)[C@H](C)OC(=O)C[C@H](O)C[C@H](O)CC[C@@H](O)[C@H](O)C[C@H](O)C[C@]5(O)C[C@H](O)[C@@H](C(=O)O)[C@H](C4)O5)O[C@H](C)[C@H]3O)C2=O)c(C)c1 (stereo partly drawn) | Antifungal activity MIC | 2
C[C@@H]1[C@H](O)[C@@H](C)/C=C/C=C/C=C/C=C/C=C/C=C/C=C/[C@H](O[C@@H]2O[C@H](C)[C@@H](O)[C@H](NCc3ccc(-c4ccccc4)cc3)[C@@H]2O)C[C@@H]2O[C@](O)(C[C@@H](O)C[C@@H](O)[C@H](O)CC[C@@H](O)C[C@@H](O)CC(=O)O[C@H]1C)C[C@H](O)[C@H]2C(=O)O [Compound A20, N-[(4-biphenyl)methyl]amphotericin B] | Antifungal activity MIC | 4
